Entry source: PubChem BioAssay (NCI)

system: SK-OV-3 ovarian; assay: NCI tumour cell line growth inhibition, 48 h
Where a SMILES comes first, the peptide text is derived from it. The star is where a group is joined. Bn = c1ccc(C*)cc1
Kindly state TGI for each of the entries shown.

[
  {
    "compound": "CCOc1ccccc1NC(=O)C(=O)Cc1nc2ccccc2s1",
    "value-kind": "TGI",
    "result": "> 100 µM"
  },
  {
    "compound": "CC[C@@]1(O)C(=O)OCc2c1cc1n(c2=O)Cc2c-1nc1cc(F)c(C)c3c1c2[C@@H](N)CC3",
    "value-kind": "TGI",
    "result": "1.41 µM"
  },
  {
    "compound": "COC(=O)C(CC(C)C)NC(=O)C(N)Cc1ccc(OCc2ccccc2)cc1 (centres undefined) (H-Tyr(Bn)-Leu-OMe; configuration not given here)",
    "value-kind": "TGI",
    "result": "> 10 µM"
  },
  {
    "compound": "Cc1ccc(Nc2nnc(-c3ccc4c(c3)OCO4)o2)c(C)c1",
    "value-kind": "TGI",
    "result": "> 100 µM"
  }
]

Would you mind listing TGI for each of the following compounds?
1. N#Cc1ccc(OC(=O)Nc2ccc(Cl)c(Cl)c2)cc1
2. O=C1CS(=O)C23c4cc5ccccc5n4CCC2CCCN13 (centres undefined)
3. Cc1cccc(C(C)C)c1NC(=O)C(=O)C(C(=O)c1ccccc1F)C1OC(=O)c2ccccc21 (centres undefined)
4. O=c1nc(-c2ccccc2)cc(-c2ccccc2O)[nH]1
5. CC(C)C1=C2CCC3(C)C(CCC4C5C6OCC5(CCC6(C)C)CCC43C)C2(C)CC1 (centres undefined)
6. O=C(NCc1ccc(S(=O)(=O)c2cc(F)cc(F)c2)cc1)c1ccc2nccn2c1

Result:
1. 51.2 µM
2. > 100 µM
3. 64.9 µM
4. > 100 µM
5. > 100 µM
6. 60.6 µM

Would you mind listing TGI for each of the following compounds?
1. Nc1nc(Nc2ccccc2)sc1C(=O)c1c[nH]c2ccccc12
2. CCN(CC)CCNC(=O)c1ccc(C)c(OCc2ccccc2)c1[N+](=O)[O-]
3. COC(=O)c1cccc2cccc(C(=O)Nc3ccc(Cl)cc3)c12

Result:
["32.8 µM", "> 75.9 µM", "> 100 µM"]

Would you mind listing TGI for each of the following compounds?
1. COc1cc([C@@H]2c3cc4c(cc3[C@@H](c3c(O)cc(O)c5c3O[C@H](c3ccc(O)c(O)c3)[C@@H](O)C5)[C@H]3COC(=O)[C@H]23)OCO4)cc(OC)c1O
2. Cc1c2ccncc2c(C)c2c1[nH]c1ccccc12
3. O=[N+]([O-])c1ccc(CSCc2ccc(Cl)cc2)cc1
4. CN(C)P(=O)(Oc1occc1C(O)Cc1ccccc1)N(C)C (centres undefined)
5. CCCCc1c2c(nc3c1CCC/C3=C\c1ccccc1)/C(=C/c1ccccc1)CCC2

Result:
> 100 µM
4.44 µM
> 100 µM
> 100 µM
> 100 µM
